Listed here are molecules together with their documented half-life.
assay: physchem
protocol_conditions: buffer, pH 7.4

Known half-life results, listed for orientation:
{"molecular_string": "CC(=O)NCCC[Si](C)(C)O[Si](C)(C)CCCn1cc(-c2ccccc2)nn1", "readout_name": "half-life", "measured_result": "> 6 h"}
{"molecular_string": "Cc1cc(C)nc(SC[Si](C)(C)O[Si](C)(C)C)n1", "readout_name": "half-life", "measured_result": "40 h"}
{"molecular_string": "CC(=O)NCCC[Si](C)(C)O[Si](C)(C)CSc1ncc(Cn2cc(-c3ccccc3)nn2)cn1", "readout_name": "half-life", "measured_result": "> 3 h"}
{"molecular_string": "C[Si](C)(C)O[Si](C)(C)CS(=O)(=O)c1ncccn1", "readout_name": "half-life", "measured_result": "0.583 h"}
{"molecular_string": "CC(C)C(=O)NCCC[Si](C)(C)O[Si](C)(C)CSc1ncccn1", "readout_name": "half-life", "measured_result": "> 2 h"}
{"molecular_string": "C[Si](C)(CCCC(=O)O)O[Si](C)(C)c1ccccc1", "readout_name": "half-life", "measured_result": "> 24 h"}

Query: Reported half-life, molecule Cc1ccnc(SC[Si](C)(C)O[Si](C)(C)C)n1 : ____
Reply: > 2 h

Query: For CC(=O)NCCC[Si](C)(C)O[Si](C)(C)CSc1ncc(COCCOCCOCCn2cc(COCC(COCc3cn(CCOCCOCCOCc4cnc(SC[Si](C)(C)O[Si](C)(C)CCCNC(C)=O)nc4)nn3)(COCc3cn(CCOCCOCCOCc4cnc(SC[Si](C)(C)O[Si](C)(C)CCCNC(C)=O)nc4)nn3)NC(C)=O)nn2)cn1 then?
Reply: > 18 h

Query: Also CC(=O)NCCC[Si](C)(C)O[Si](C)(C)CSc1ncc(Cn2cc(-c3ccc(COCC(COCc4ccc(-c5cn(Cc6cnc(SC[Si](C)(C)O[Si](C)(C)CCCNC(C)=O)nc6)nn5)cc4)(COCc4ccc(-c5cn(Cc6cnc(SC[Si](C)(C)O[Si](C)(C)CCCNC(C)=O)nc6)nn5)cc4)NC(=O)OC(C)(C)C)cc3)nn2)cn1 ?
Reply: > 18 h

Query: Then this molecule: C[Si](C)(C)O[Si](C)(C)CSc1ncccn1
Reply: 24 h

Query: # iterate: CCOC(=O)CCC[Si](C)(C)O[Si](C)(C)CCCC(=O)O
Reply: > 24 h

Query: And for C[Si](C)(COc1ncccn1)O[Si](C)(C)COc1ncccn1 ?
Reply: > 4 h
